Here, each record is paired with measured IC50 data.
- procedure.text: Inhibition of transglycosylase in Staphylococcus aureus ATCC 33592 assessed as inhibition of NBD- labelled lipid II polymerization
// unit must come after the numeric part

[[record]]
compound = "O=C(c1ccc(Cl)cc1)c1ccc(Oc2ccc(Cl)cc2)c(NC(=O)c2cc(I)cc(I)c2O)c1"
experimental_value = "9.3 µM"

[[record]]
compound = "Cc1ccc(C(C)C)c(Oc2ccccc2NC(=O)c2cc(I)cc(I)c2O)c1"
experimental_value = "27.8 µM"

[[record]]
compound = "Cc1ccc(C(C)C)c(Oc2cc(Cl)ccc2NC(=O)c2cc(Br)cc(Br)c2O)c1"
experimental_value = "19.6 µM"


Q) Please look up its IC50: C=C(C/C=C(\C)CCC=C(C)C)CCC(C)(C)/C=C/CC/C(C)=C/CO[C@@H](COP(=O)(O)O[C@H]1O[C@H](C(N)=O)[C@@](C)(O)[C@H](OC(N)=O)[C@H]1O[C@@H]1O[C@H](CO[C@@H]2O[C@H](CO)[C@@H](O)[C@H](O)[C@H]2O)[C@@H](O[C@@H]2O[C@H](C)[C@@H](O[C@@H]3O[C@H](C(=O)NC4=C(O)CCC4=O)[C@H](O)[C@H](O)[C@H]3O)[C@H](O)[C@H]2NC(C)=O)[C@H](O)[C@H]1NC(C)=O)C(=O)O [MOENOMYCIN A]
A) 0.034 µM
